- system: H1047R PIK3CA enzyme (Homo sapiens, UniProt P42336, H1047R)
- Sequence (P42336 whole entry H1047R): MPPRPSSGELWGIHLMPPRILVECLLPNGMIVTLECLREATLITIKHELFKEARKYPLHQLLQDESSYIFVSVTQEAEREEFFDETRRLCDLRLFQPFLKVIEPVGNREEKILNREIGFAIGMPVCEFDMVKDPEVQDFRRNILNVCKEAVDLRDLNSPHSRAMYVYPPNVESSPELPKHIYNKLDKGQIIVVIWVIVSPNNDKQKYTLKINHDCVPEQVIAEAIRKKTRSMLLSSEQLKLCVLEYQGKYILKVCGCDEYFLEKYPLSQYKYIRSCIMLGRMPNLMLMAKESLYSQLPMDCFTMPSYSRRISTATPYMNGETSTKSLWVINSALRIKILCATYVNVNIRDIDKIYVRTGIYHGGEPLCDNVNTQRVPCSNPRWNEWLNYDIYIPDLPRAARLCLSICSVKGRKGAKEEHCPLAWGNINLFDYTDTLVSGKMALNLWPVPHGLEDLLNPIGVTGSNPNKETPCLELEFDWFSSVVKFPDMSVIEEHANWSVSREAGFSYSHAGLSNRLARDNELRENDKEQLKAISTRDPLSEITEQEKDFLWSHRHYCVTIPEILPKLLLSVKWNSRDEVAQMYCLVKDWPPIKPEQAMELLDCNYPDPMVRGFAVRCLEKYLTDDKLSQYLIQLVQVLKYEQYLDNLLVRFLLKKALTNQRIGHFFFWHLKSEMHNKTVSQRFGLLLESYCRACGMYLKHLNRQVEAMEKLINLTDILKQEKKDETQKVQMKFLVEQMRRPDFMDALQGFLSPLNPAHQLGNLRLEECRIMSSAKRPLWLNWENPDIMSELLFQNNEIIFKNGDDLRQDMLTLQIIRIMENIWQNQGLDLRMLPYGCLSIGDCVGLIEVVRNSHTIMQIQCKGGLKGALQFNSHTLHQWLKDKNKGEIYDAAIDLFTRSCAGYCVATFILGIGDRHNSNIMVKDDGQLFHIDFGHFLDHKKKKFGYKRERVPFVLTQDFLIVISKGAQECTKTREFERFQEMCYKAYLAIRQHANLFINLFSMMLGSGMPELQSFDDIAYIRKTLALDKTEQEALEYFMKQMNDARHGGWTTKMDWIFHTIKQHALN
- Sequence (P27986 whole entry partner): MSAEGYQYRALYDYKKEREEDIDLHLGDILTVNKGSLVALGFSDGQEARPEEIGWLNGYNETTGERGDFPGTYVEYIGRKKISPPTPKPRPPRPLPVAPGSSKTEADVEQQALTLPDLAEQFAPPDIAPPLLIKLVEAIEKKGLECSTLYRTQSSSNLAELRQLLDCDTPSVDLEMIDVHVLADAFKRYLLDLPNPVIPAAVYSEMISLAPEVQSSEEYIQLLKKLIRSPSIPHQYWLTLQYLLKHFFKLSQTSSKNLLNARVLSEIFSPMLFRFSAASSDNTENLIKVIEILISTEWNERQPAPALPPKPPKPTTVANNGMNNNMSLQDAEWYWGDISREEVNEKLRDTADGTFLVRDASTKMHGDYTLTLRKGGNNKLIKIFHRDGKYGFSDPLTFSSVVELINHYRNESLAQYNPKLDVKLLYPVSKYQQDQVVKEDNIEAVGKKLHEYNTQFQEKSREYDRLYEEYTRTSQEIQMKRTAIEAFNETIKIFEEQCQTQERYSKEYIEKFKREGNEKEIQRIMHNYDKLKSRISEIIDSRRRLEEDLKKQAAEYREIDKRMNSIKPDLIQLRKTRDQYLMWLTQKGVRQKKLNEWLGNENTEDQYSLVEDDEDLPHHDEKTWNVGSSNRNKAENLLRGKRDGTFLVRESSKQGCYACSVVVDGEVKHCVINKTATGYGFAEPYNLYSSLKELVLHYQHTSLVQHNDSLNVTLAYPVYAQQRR
- method_description: ADP-Glo Biochemical PIK3CA Kinase Assay
- Procedure: Compounds to be assayed were plated in 16 doses of 1:2 serial dilutions (20 nL volume each well) on a 1536-well plate, and the plate warmed to room temperature. […] To the well was added 1 μL of 200 μM ATP and 20 μM of diC8-PIP2 in Substrate Assay Buffer (50 mM HEPES pH7.4, 50 mM NaCl, 5 mM DTT and 0.03% CHAPS) to start the reaction, and the plate was shaken for 10 seconds, then spun briefly at 1500 rpm, and then incubated for 60 minutes at room temperature. […]
result_type: IC50

IC50 measured on N#Cc1nn(C(F)F)cc1-c1cc(NC(=O)c2cc(F)cc(C(F)(F)F)c2)c2c(c1)C(=O)N[C@@H]2c1cc(F)ccc1Cl = 1 to 10 µM

Consider N#Cc1cc2nccn2cc1-c1cc(NC(=O)c2cc(F)cc(C(F)(F)F)c2)c2c(c1)C(=O)N[C@@H]2c1cc(F)ccc1Cl . Its measured IC50 is 0.5 to 1 µM

Reported IC50 for NCc1cc(NC(=O)N2CC(O)(C(F)F)c3cc(F)ccc32)c2c(c1)C(=O)NC2c1cc(F)ccc1Cl (stereo not drawn) was ≤ 0.1 µM

GET /value?item= CC(C)(O)c1cc(NC(=O)c2cc(F)cc(C(F)(F)F)c2)c2c(c1)C(=O)N[C@@H]2c1cc(F)ccc1C(F)F &field=IC50 returns 10 to 100 µM

IC50 measured on Cc1cnc2ccc(-c3cc(NC(=O)c4cc(F)cc(C(F)(F)F)c4)c4c(c3)C(=O)NC4c3cc(F)ccc3Cl)nn12 (stereo not drawn) = ≤ 0.1 µM

Lab note: measured IC50 of N#C[C@@H]1CCN(C(=O)Nc2cc(-c3ccc4ncnn4c3)cc3c2C(c2cc(F)ccc2Cl)NC3=O)C1 (mixture of isomers) was 10 to 100 µM

====

Reported pIC50 values are given for each entry in this list.
- system: H1047R PIK3CA enzyme (Homo sapiens, UniProt P42336, H1047R)
- method_description: ADP-Glo Biochemical PIK3CA Kinase Assay
pIC50: −log10 of the molar value.

| molecule | pIC50 |
| --- | --- |
| CC1(Nc2cc(NC(=O)c3cc(F)cc(C(F)(F)F)c3)c3c(c2)C(=O)NC3c2cc(F)ccc2Cl)COC1 (stereo not drawn) | ≥ 7.00 |
| O=C1NC(c2cc(F)ccc2Cl)c2c(NC(=O)C3CCCC(C(F)(F)F)N3)cc(-c3ccc4ncnn4c3)cc21 (mixture of isomers) | 5.00 to 6.00 |
| COCc1cc(NC(=O)c2nsc3ccccc23)c2c(c1)C(=O)NC2c1ccccc1C (stereo not drawn) | ≥ 7.00 |
| N#CC1CN(c2cc(NC(=O)c3cc(F)cc(C(F)(F)F)c3)c3c(n2)C(=O)NC3c2cc(F)ccc2Cl)C1 (stereo not drawn) | ≥ 7.00 |
| Cn1cc(-c2cc(NC(=O)c3cc(F)cc(C(F)(F)F)c3)c3c(n2)C(=O)N[C@@H]3c2cc(F)ccc2Cl)ccc1=O | 5.00 to 6.00 |

Next up:
pIC50 for O=C(Nc1cc(-c2ccc3ncnn3c2)cc2c1[C@@H](c1cc(F)ccc1Cl)NC2=O)c1cc(F)cc(Cl)c1 (stereo in doubt) is 5.00 to 6.00
